# System: Caco-2 cells
# assay remarks: Caco-2 permeability / efflux transporter substrate
# experimental parameters: Caco-2
The compounds listed here are annotated with their Caco-2 Mean Recovery % B to A.
Value expressed in %; do not type the unit.

Record NCc1ccccc1CC(=O)N[C@@H]1C(=O)N2C(C(=O)O)=C(CSc3nnnn3CCO)CS[C@H]12 [TBBL-0000656] , field Caco-2 Mean Recovery % B to A: 106.09

Record CC=CC(=O)OCC1=C(C(=O)O)N2C(=O)[C@@H](NC(=O)C(=NO)c3cccs3)[C@H]2SC1 [TBBL-0000058] , field Caco-2 Mean Recovery % B to A: 111.16

Record Cn1nnnc1SCC1=C(C(=O)O)N2C(=O)[C@@H](NC(=O)Cc3ccc(C4=NCCCN4)cc3)[C@H]2SC1 [TBBL-0000309] , field Caco-2 Mean Recovery % B to A: 104.93

Record Cn1c(SCC2=C(C(=O)O)N3C(=O)[C@@H](NC(=O)Cc4ccccc4CN)[C@H]3SC2)nnc(O)c1=O [TBBL-0000460] , field Caco-2 Mean Recovery % B to A: 106.35

Record CON=C(C(=O)N[C@@H]1C(=O)N2C(C(=O)O)=C(CSc3cccc[n+]3[O-])CS[C@H]12)c1csc(N)n1 [TBBL-0000539] , field Caco-2 Mean Recovery % B to A: 105.53

Record CCc1nnc(SCC2=C(C(=O)O)N3C(=O)[C@@H](NC(=O)Cc4ccc(C5=NCCN5)cc4)[C@H]3SC2)s1 [TBBL-0000310] , field Caco-2 Mean Recovery % B to A: 102.93

----------
The compounds listed here are annotated with their Tlast.
# experimental parameters: 300 mg/kg sc, uninfected DHP-1 mice
Value expressed in h; do not type the unit.

{"compound": "O=C(CCCC(NC(=O)c1ccc(Cl)cc1Cl)C(=O)O)N[C@@H]1C(=O)N2C(C(=O)O)=C(CSc3cccc[n+]3[O-])CS[C@H]12 (some centres unmarked)", "Tlast [h]": 4.0}

Record CN(C)C(=S)SCC1=C(C(=O)O)N2C(=O)[C@@H](NC(=O)Cc3cccs3)[C@H]2SC1 , field Tlast: 4.0

----------
The compounds listed here are annotated with their Mtb H37Rv R + CLAV (MIC90).
# Test system: Mtb H37Rv
# assay remarks: MIC90 against replicating (R) Mtb H37Rv, with or without clavulanate
# Type: cell-based, Mycobacterium tuberculosis
# experimental parameters: clavulanate 4 μg/mL, Table S4
Value expressed in µM; do not type the unit.

{"compound": "Cn1nnnc1SCC1=C(C(=O)O)N2C(=O)[C@@H](NC(=O)CSc3cc(Cl)ccc3Cl)[C@H]2SC1 [TBBL-0000446]", "Mtb H37Rv R + CLAV (MIC90), µM": 1.5}

Record Cn1nnnc1SCC1=C(C(=O)O)N2C(=O)[C@@H](NC(=O)Cc3ccc(C4=NCCN4)cc3)[C@H]2SC1 [TBBL-0000323] , field Mtb H37Rv R + CLAV (MIC90): 0.8

Record CC(=O)OCC1=C(C(=O)O)N2C(=O)[C@@H](NC(=O)CSc3ccncc3)[C@H]2SC1 [TBBL-0000063] , field Mtb H37Rv R + CLAV (MIC90): 1.9

Record CC=CC(=O)OCC1=C(C(=O)O)N2C(=O)[C@@H](NC(=O)C(=NO)c3cccs3)[C@H]2SC1 [TBBL-0000058] , field Mtb H37Rv R + CLAV (MIC90): 1.1

Record CCc1cc[n+](CC2=C(C(=O)[O-])N3C(=O)[C@@H](NC(=O)Cc4cccs4)[C@H]3SC2)cc1 [TBBL-0000418] , field Mtb H37Rv R + CLAV (MIC90): 1.4

Record Cc1nnc(SCC2=C(C(=O)O)N3C(=O)[C@@H](NC(=O)CSc4cc(Cl)ccc4Cl)[C@H]3SC2)s1 [TBBL-0000415] , field Mtb H37Rv R + CLAV (MIC90): 1.6

Record NCc1ccccc1CC(=O)N[C@@H]1C(=O)N2C(C(=O)O)=C(CSc3nnnn3CCO)CS[C@H]12 [TBBL-0000656] , field Mtb H37Rv R + CLAV (MIC90): 2.1

----------
# System: Mtb H37Rv
# assay remarks: MIC90 against nonreplicating (NR, 4-stress) Mtb H37Rv, with or without clavulanate
# Format: cell-based, Mycobacterium tuberculosis
# experimental parameters: 4-stress nonreplicating, clavulanate 4 μg/mL; Table S4
The compounds listed here are annotated with their Mtb H37Rv NR + CLAV (MIC90).

// known answers, use as guide
{"compound": "C=CCn1nnnc1SCC1=C(C(=O)O)N2C(=O)[C@@H](NC(=O)Cc3ccc(C4=NCCN4)cc3)[C@H]2SC1", "measured on": "Mtb H37Rv", "endpoint": "Mtb H37Rv NR + CLAV (MIC90)", "observed": "> 100 µM"}
{"compound": "NCCSC=CC1=C(C(=O)O)N2C(=O)C(NC(=O)CSc3ccc(Cl)c(Cl)c3)C2SC1 (centres unmarked)", "measured on": "Mtb H37Rv", "endpoint": "Mtb H37Rv NR + CLAV (MIC90)", "observed": "> 100 µM"}
{"compound": "CCCn1nnnc1SCC1=C(C(=O)O)N2C(=O)[C@@H](NC(=O)Cc3ccc(C4=NCCN4)cc3)[C@H]2SC1", "measured on": "Mtb H37Rv", "endpoint": "Mtb H37Rv NR + CLAV (MIC90)", "observed": "> 100 µM"}
{"compound": "CCn1nnnc1SCC1=C(C(=O)O)N2C(=O)[C@@H](NC(=O)Cc3ccc(C4=NCCN4)cc3)[C@H]2SC1", "measured on": "Mtb H37Rv", "endpoint": "Mtb H37Rv NR + CLAV (MIC90)", "observed": "> 100 µM"}
{"compound": "CON=C(C(=O)N[C@@H]1C(=O)N2C(C(=O)O)=C(CSc3cccc[n+]3[O-])CS[C@H]12)c1csc(N)n1", "measured on": "Mtb H37Rv", "endpoint": "Mtb H37Rv NR + CLAV (MIC90)", "observed": "4.6 µM"}
{"compound": "N=C(N)SCc1ccccc1SC1=C(C(=O)O)N2C(=O)[C@@H](NC(=O)C(N)c3ccccc3)[C@H]2CC1 (some centres unmarked)", "measured on": "Mtb H37Rv", "endpoint": "Mtb H37Rv NR + CLAV (MIC90)", "observed": "> 100 µM"}

Record CN(C)C(=S)SCC1=C(C(=O)O)N2C(=O)[C@@H](NC(=O)Cc3cccs3)[C@H]2SC1 , field Mtb H37Rv NR + CLAV (MIC90): > 100 µM

Record CCc1nnc(SCC2=C(C(=O)O)N3C(=O)[C@@H](NC(=O)Cc4ccc(C5=NCCCN5)cc4)[C@H]3SC2)s1 , field Mtb H37Rv NR + CLAV (MIC90): > 100 µM

Record CNCc1ccccc1CC(=O)N[C@@H]1C(=O)N2C(C(=O)O)=C(CSc3nnnn3C)CS[C@H]12 , field Mtb H37Rv NR + CLAV (MIC90): > 100 µM

----------
# Tested on: HepG2 cells
# assay remarks: Cytotoxicity against HepG2 cells (CellTiter-Glo)
# Format: cell-based, human
# experimental parameters: Table S4
endpoint: HepG2 LD50 (µM)
Value expressed in µM; do not type the unit.

// known answers, use as guide
{"molecule": "O=C(O)C1=C(CSc2cccc[n+]2[O-])CS[C@@H]2[C@H](NC(=O)/C(=N\\Oc3ccccc3)c3ccco3)C(=O)N12 [TBBL-0000005]", "measured on": "HepG2 cells", "HepG2 LD50 (µM)": 88.7}
{"molecule": "CN(C)C(=S)SCC1=C(C(=O)O)N2C(=O)[C@@H](NC(=O)Cc3cccs3)[C@H]2SC1 [TBBL-0000009]", "measured on": "HepG2 cells", "HepG2 LD50 (µM)": 6.6}
{"molecule": "O=C(CCCC(NC(=O)c1ccc(Cl)cc1Cl)C(=O)O)N[C@@H]1C(=O)N2C(C(=O)O)=C(CSc3cccc[n+]3[O-])CS[C@H]12 (some centres unmarked) [TBBL-0000552]", "measured on": "HepG2 cells", "HepG2 LD50 (µM)": 74.3}

Here's the next entry for you.
Record O=C(Cc1cccs1)N[C@@H]1C(=O)N2C(C(=O)O)=C(CSc3cccc[n+]3[O-])CS[C@H]12 [TBBL-0000001] , field HepG2 LD50: 67.5

----------
The molecules listed here are annotated with their Mtb H37Rv NR + CLAV (MIC90).
# Tested on: Mtb H37Rv
# assay remarks: MIC90 against nonreplicating (NR, 4-stress) Mtb H37Rv, with or without clavulanate
# Assay type: cell-based, Mycobacterium tuberculosis
# experimental parameters: 4-stress nonreplicating, clavulanate 4 μg/mL; Table S4

{"molecule": "O=C(Cc1cccs1)N[C@@H]1C(=O)N2C(C(=O)O)=C(C[n+]3ccccn3)CS[C@H]12", "observed": "> 100 µM"}

The observed Mtb H37Rv NR + CLAV (MIC90) for NCc1ccccc1CC(=O)N[C@@H]1C(=O)N2C(C(=O)O)=C(CSc3nnnn3CCO)CS[C@H]12 when tested with Mtb H37Rv stands at > 100 µM

The observed Mtb H37Rv NR + CLAV (MIC90) for O=C(O)C1=C(CSc2cccc[n+]2[O-])CS[C@@H]2[C@H](NC(=O)/C(=N\Oc3ccccc3)c3ccco3)C(=O)N12 when tested with Mtb H37Rv stands at 1.5 µM

The observed Mtb H37Rv NR + CLAV (MIC90) for CCn1nnnc1SCC1=C(C(=O)O)N2C(=O)[C@@H](NC(=O)Cc3ccc(C4=NCCCN4)cc3)[C@H]2SC1 when tested with Mtb H37Rv stands at > 100 µM

The observed Mtb H37Rv NR + CLAV (MIC90) for CC1=C(C(=O)O)N2C(=O)[C@@H](NC(=O)CSc3ccc(C(=N)N)cc3)[C@H]2SC1 when tested with Mtb H37Rv stands at > 100 µM

The observed Mtb H37Rv NR + CLAV (MIC90) for O=C(Cn1cnnn1)N[C@@H]1C(=O)N2C(C(=O)O)=C(CSc3cccc[n+]3[O-])CS[C@H]12 when tested with Mtb H37Rv stands at 3 µM

The observed Mtb H37Rv NR + CLAV (MIC90) for Cn1nnnc1SCC1=C(C(=O)O)N2C(=O)[C@@H](NC(=O)Cc3ccc(C4=NCCN4)cc3)[C@H]2SC1 when tested with Mtb H37Rv stands at > 100 µM

The observed Mtb H37Rv NR + CLAV (MIC90) for CC(=O)OCC1=C(C(=O)O)N2C(=O)[C@@H](NC(=O)CSc3ccncc3)[C@H]2SC1 when tested with Mtb H37Rv stands at > 100 µM

The observed Mtb H37Rv NR + CLAV (MIC90) for CCCc1nnc(SCC2=C(C(=O)O)N3C(=O)[C@@H](NC(=O)Cc4ccc(C(=N)N)cc4)[C@H]3SC2)s1 when tested with Mtb H37Rv stands at > 100 µM

meta.source: paper PMC8922279
